Biological target: Gonadotropin-releasing hormone receptor (Homo sapiens)
Sequence (P30968 whole entry): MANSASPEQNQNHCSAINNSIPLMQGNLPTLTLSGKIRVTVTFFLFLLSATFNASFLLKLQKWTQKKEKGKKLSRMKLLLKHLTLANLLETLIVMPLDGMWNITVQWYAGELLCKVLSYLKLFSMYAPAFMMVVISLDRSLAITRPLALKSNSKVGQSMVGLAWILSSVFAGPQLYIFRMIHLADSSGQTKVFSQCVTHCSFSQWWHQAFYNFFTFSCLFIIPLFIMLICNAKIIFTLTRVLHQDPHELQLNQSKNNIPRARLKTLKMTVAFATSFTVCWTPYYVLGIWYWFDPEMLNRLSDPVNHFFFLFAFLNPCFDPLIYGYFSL
Experiment: Inhibition of [125I]buserelin binding to human Gonadotropin-releasing hormone receptor.
endpoint-label: pIC50
pIC50 here is simply -log10 of the concentration when that concentration is written in mol/L.

Examples with their reported pIC50 follow.
compound-structure	endpoint-result
CCN(CC)C(=O)c1ccc2[nH]c(-c3cc(C)cc(C)c3)c(CCNCCCCc3cccnc3)c2c1	7.64
CCN(CC)C(=O)c1ccc2[nH]c(-c3cc(C)cc(C)c3)c(CCNCCCCc3ccncc3)c2c1	7.74
Cc1cc(C)cc(-c2[nH]c3ccc(C(=O)N(CC(C)C)CC(C)C)cc3c2CCNCCCCc2cccnc2)c1	8.30

Now for another entry.
For reference, reported pIC50 for CCN(C(=O)c1ccc2[nH]c(-c3cc(C)cc(C)c3)c(CCNCCCCc3cccnc3)c2c1)C1CCCCC1 stands at 8.64

###

Target: Gonadotropin-releasing hormone receptor (Rattus norvegicus)
Test: Inhibition of GnRH-stimulated luteinizing hormone (LH) release in rat pituitary cells
Format: functional, cell-based, Pituitary gland cell
pIC50: −log10 of the molar value.
Criterion: pIC50 meeting or surpassing 6. Met: Fulfilled. Not met: Not fulfilled.

compound-structure	group
CCN(CC)C(=O)c1ccc2[nH]c(-c3cc(C)cc(C)c3)c(CCN(C)CCCCc3ccncc3)c2c1	Fulfilled
Cc1cc(C)cc(-c2[nH]c3ccc(C(=O)N4CCCC4)cc3c2CCNCCCCc2ccncc2)c1	Not fulfilled
Cc1cc(C)cc(-c2[nH]c3ccc(C(=O)N(CC(F)(F)F)CC(F)(F)F)cc3c2CCNCCCCc2ccncc2)c1	Not fulfilled

We now examine a further molecule.
query: Does the reported pIC50 for CCN(CC)C(=O)c1ccc2[nH]c(-c3cc(C)cc(C)c3)c(CCNCCCCc3cccnc3)c2c1 fall at or above the 6 mark?
result: Fulfilled

###

Target: Gonadotropin-releasing hormone receptor (Rattus norvegicus, UniProt P30969)
Sequence (P30969 whole entry): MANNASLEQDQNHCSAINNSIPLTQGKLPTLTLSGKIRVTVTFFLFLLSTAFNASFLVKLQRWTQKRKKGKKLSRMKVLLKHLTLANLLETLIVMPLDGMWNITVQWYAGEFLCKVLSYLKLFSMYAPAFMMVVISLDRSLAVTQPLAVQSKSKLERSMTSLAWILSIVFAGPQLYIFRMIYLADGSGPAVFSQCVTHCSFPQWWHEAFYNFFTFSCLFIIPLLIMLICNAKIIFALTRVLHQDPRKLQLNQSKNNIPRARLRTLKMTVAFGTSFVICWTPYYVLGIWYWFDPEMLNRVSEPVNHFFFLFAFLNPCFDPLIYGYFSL
Experiment: Inhibition of [125I]buserelin binding to rat Gonadotropin-releasing hormone receptor.
Catalogue of pIC50 values
pIC50 here is simply -log10 of the concentration when that concentration is written in mol/L.

Examples with their reported pIC50 follow.
compound-structure	endpoint-result
Cc1cc(C)cc(-c2[nH]c3ccc(C(=O)N(C(C)C)C(C)C)cc3c2CCNCCCCc2ccncc2)c1	9.52
Cc1cc(C)cc(-c2[nH]c3ccc(C(=O)N(C)C)cc3c2CCNCCCCc2ccncc2)c1	9.10
Cc1cc(C)cc(-c2[nH]c3ccc(C(=O)N(CC(C)C)CC(C)C)cc3c2CCNCCCCc2cccnc2)c1	9.15

Now for another entry.
The compound Cc1cc(C)cc(-c2[nH]c3ccc(C(=O)N(CC(F)(F)F)CC(F)(F)F)cc3c2CCNCCCCc2ccncc2)c1 , when measured on Gonadotropin-releasing hormone receptor (Rattus norvegicus, UniProt P30969), yielded pIC50 of 9.22

###

Target: Gonadotropin-releasing hormone receptor (Rattus norvegicus)
Assay: Inhibition of GnRH-stimulated luteinizing hormone (LH) release in rat pituitary cells
Assay type: functional, cell-based, Pituitary gland cell
Catalogue of IC50 values
I only need the number, in µM, no unit after it.

compound-structure	endpoint-label	endpoint-result
Cc1cc(C)cc(-c2[nH]c3ccc(C(=O)N4CCOCC4)cc3c2CCNCCCCc2cccnc2)c1	IC50	1.6

For reference, reported IC50 for Cc1cc(C)cc(-c2[nH]c3ccc(C(C)(C)C(=O)N4C5CCC4CC5)cc3c2CCNCCCCc2ccncc2)c1 stands at 0.071

For reference, reported IC50 for Cc1cc(C)cc(-c2[nH]c3ccc(C(C)(C)C(=O)N4CC(C)(C)C4)cc3c2CCNCCCCc2cccnc2)c1 stands at 0.19

For reference, reported IC50 for CCN(CC)C(=O)C(C)(C)c1ccc2[nH]c(-c3cc(C)cc(C)c3)c(CCNCCCCc3cccnc3)c2c1 stands at 0.24

###

Target: Gonadotropin-releasing hormone receptor (Homo sapiens, UniProt P30968)
Test: Inhibition of [125I]buserelin binding to human Gonadotropin-releasing hormone receptor.
Checkbox rule: IC50 lower than 30 nM = criterion met; IC50 not lower than 30 nM = criterion not met.

compound	study-target	group
COCCN(CCOC)C(=O)c1ccc2[nH]c(-c3cc(C)cc(C)c3)c(CCNCCCCc3cccnc3)c2c1	Gonadotropin-releasing hormone receptor (Homo sapiens, UniProt P30968)	criterion not met
CCN(C(=O)c1ccc2[nH]c(-c3cc(C)cc(C)c3)c(CCNCCCCc3cccnc3)c2c1)C(C)C	Gonadotropin-releasing hormone receptor (Homo sapiens, UniProt P30968)	criterion met
Cc1cc(C)cc(-c2[nH]c3ccc(C(=O)N4C(C)CCC4C)cc3c2CCNCCCCc2cccnc2)c1 (stereo not given)	Gonadotropin-releasing hormone receptor (Homo sapiens, UniProt P30968)	criterion met

We now examine a further compound.
query: In the record for CCN(C(=O)c1ccc2[nH]c(-c3cc(C)cc(C)c3)c(CCNCCCCc3ccncc3)c2c1)C1CCCCC1 , is IC50 less than 30 nM?
result: criterion met

###

Molecular target: Gonadotropin-releasing hormone receptor (Homo sapiens)
Assay: Inhibition of GnRH-stimulated phosphatidylinositol (PI) hydrolysis in cloned chinese hamster ovary (CHO) cells expressing human GnRH receptor.
Assay type: functional, cell-based
endpoint-label: IC50 (nM)
I only need the number, in nM, no unit after it.

compound	readout-unit	IC50
CCN(CCCCc1ccncc1)CCc1c(-c2cc(C)cc(C)c2)[nH]c2ccc(C(C)(C)C(=O)N3C4CCC3CC4)cc12	nM	90
CCC(CC)(C(=O)N1C2CCC1CC2)c1ccc2[nH]c(-c3cc(C)cc(C)c3)c(CCNCCCCc3ccncc3)c2c1	nM	40
CCN(CC)C(=O)c1ccc2[nH]c(-c3cc(C)cc(C)c3)c(CCNCCCCc3ccncc3)c2c1	nM	12

For reference, reported IC50 for Cc1cc(C)cc(-c2[nH]c3ccc(C(=O)N4C5CCC4CC5)cc3c2CCNCCCCc2ccncc2)c1 stands at 260

For reference, reported IC50 for Cc1cc(C)cc(-c2[nH]c3ccc(C(=O)N4C(C)CCC4C)cc3c2CCNCCCCc2cccnc2)c1 (stereo not given) stands at 62

###

Biological target: Gonadotropin-releasing hormone receptor (Rattus norvegicus)
Experiment: Inhibition of GnRH-stimulated luteinizing hormone (LH) release in rat pituitary cells
Type: functional, cell-based, Pituitary gland cell
pIC50: −log10 of the molar value.
Criterion: pIC50 meeting or surpassing 6. Met: met. Not met: not met.

molecule	group
Cc1cc(C)cc(-c2[nH]c3ccc(C(=O)N(C(C)C)C(C)C)cc3c2CCNCCCCc2ccncc2)c1	met
Cc1cc(C)cc(-c2[nH]c3ccc(C(=O)N4CCCC4)cc3c2CCNCCCCc2cccnc2)c1	not met
Cc1cc(C)cc(-c2[nH]c3ccc(C(=O)N4C(C)CCC4C)cc3c2CCNCCCCc2ccncc2)c1 (stereo not given)	met

We now examine a further molecule.
query: Does the reported pIC50 for CCN(C(=O)c1ccc2[nH]c(-c3cc(C)cc(C)c3)c(CCNCCCCc3ccncc3)c2c1)C1CCCCC1 fall at or above the 6 mark?
result: met

###

Target: Gonadotropin-releasing hormone receptor (Rattus norvegicus)
Assay: Inhibition of GnRH-stimulated luteinizing hormone (LH) release in rat pituitary cells
Type: functional, cell-based, Pituitary gland cell
endpoint-label: pIC50
pIC50 here is simply -log10 of the concentration when that concentration is written in mol/L.

Examples with their reported pIC50 follow.
compound-structure	pIC50
CCCCN(CCCC)C(=O)c1ccc2[nH]c(-c3cc(C)cc(C)c3)c(CCNCCCCc3cccnc3)c2c1	6.00
CCN(CCO)C(=O)c1ccc2[nH]c(-c3cc(C)cc(C)c3)c(CCNCCCCc3ccncc3)c2c1	6.00
CCN(CCCCc1ccncc1)CCc1c(-c2cc(C)cc(C)c2)[nH]c2ccc(C(C)(C)C(=O)N3C4CCC3CC4)cc12	6.14

Now for another entry.
For reference, reported pIC50 for Cc1cc(C)cc(-c2[nH]c3ccc(C(C)(C)C(=O)N(C)C)cc3c2CCNCCCCc2cccnc2)c1 stands at 6.17

These entries and their values trace back to ChEMBL document CHEMBL1134123.
